Origin of the recorded values: the supplement of paper PMC3545927

biological target: furin, P09958; experiment: furin cleavage Z-score vs untreated control; higher = more cleavage, active = 3.5 or more, inactive = 1 or less, 8 variable residues between constant flanks; settings: 30 min;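 note: purified furin at 1:10 enzyme:substrate in 50 mM HEPES pH 7.5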
Sequence (P09958 whole entry): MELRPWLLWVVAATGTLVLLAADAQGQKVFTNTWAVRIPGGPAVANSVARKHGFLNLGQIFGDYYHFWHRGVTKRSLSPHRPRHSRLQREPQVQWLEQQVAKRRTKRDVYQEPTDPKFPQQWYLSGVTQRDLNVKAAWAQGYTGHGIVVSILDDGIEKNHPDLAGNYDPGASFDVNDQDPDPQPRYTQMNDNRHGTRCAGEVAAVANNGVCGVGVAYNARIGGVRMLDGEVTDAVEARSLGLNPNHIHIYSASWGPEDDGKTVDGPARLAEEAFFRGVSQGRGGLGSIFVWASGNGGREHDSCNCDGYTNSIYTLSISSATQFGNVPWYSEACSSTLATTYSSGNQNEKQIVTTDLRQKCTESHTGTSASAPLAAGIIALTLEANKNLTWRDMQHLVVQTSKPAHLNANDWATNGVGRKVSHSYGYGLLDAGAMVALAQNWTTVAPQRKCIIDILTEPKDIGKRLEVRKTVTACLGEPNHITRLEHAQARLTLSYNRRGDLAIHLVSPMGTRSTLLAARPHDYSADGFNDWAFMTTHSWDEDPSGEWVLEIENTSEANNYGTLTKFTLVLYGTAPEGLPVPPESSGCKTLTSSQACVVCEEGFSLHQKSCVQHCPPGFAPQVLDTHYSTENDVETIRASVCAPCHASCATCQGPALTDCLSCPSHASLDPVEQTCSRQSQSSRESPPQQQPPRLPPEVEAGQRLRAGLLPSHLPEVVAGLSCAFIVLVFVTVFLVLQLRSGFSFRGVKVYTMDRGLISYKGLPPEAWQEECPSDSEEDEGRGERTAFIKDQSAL
The list shows a part of the results. The hit rate among all sequences tested is not known here.
Measured parameter: furin cleavage Z-score
// no unit, no text: just the number

Field: example entries. Status: answers known.
{"columns": ["Biosequence", "Measured parameter", "Number"],
 "data": [
  ["CAQLAAPGAAAGNASASA [HC1070]", "furin cleavage Z-score", -1.59],
  ["CARPDRPVLKAGNASASA [FS-2436]", "furin cleavage Z-score", -0.377],
  ["CARMAREVAAAGNASASA [FS-1909]", "furin cleavage Z-score", 6.63]
]}

Ask | Item under review: CAYRFVAPGEAGNASASA [HC910] . Reported furin cleavage Z-score?
Reply | -0.913
